Task for the reader: assign each of the following compounds its reported mass density.
assay-details: xn = mol fraction of the nth substance listed
applied-conditions: 318.15 K; 100 kPa; Liquid; Vibrating tube method; x1 = 0.3
Answers are plain numbers, in kg/m3.

State recorded mass density for all listed compounds.
1. CN1CCC[C@H]1c1cccnc1 [(-)-3-(N-methylpyrrolidino)pyridine] + CCC(C)O
2. CN1CCC[C@H]1c1cccnc1 [(-)-3-(N-methylpyrrolidino)pyridine] + OCCCO
3. CN1CCC[C@H]1c1cccnc1 [(-)-3-(N-methylpyrrolidino)pyridine] + CC(O)CO
4. CN1CCC[C@H]1c1cccnc1 [(-)-3-(N-methylpyrrolidino)pyridine] + CCCCO

Outgoing:
877.259
1022.43
1009.7
880.948
